Test system: HeLa Kyoto;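 also: HeLa Kyoto cells synchronized by double thymidine or nocodazole block, proteins quantified by TMT10plex mass spectrometry, three independent biological replicates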
Experiment notes: melting temperature (median over replicates), in situ; higher = more thermally stable
Condition summary: cell cycle stage: mitosis
Measure name: melting temperature

### Prompt Provide one value: measured melting temperature of MWLWEDQGGLLGPFSFLLLVLLLVTRSPVNACLLTGSLFVLLRVFSFEPVPSCRALQVLKPRDRISAIAHRGGSHDAPENTLAAIRQAAKNGATGVELDIEFTSDGIPVLMHDNTVDRTTDGTGRLCDLTFEQIRKLNPAANHRLRNDFPDEKIPTLREAVAECLNHNLTIFFDVKGHAHKATEALKKMYMEFPQLYNNSVVCSFLPEVIYKMRQTDRDVITALTHRPWSLSHTGDGKPRYDTFWKHFIFVMMDILLDWSMHNILWYLCGISAFLMQKDFVSPAYLKKWSAKGIQVVGWTVNTFDEKSYYESHLGSSYITDSMVEDCEPHF [GDE1]
### Response 55.9 °C

Data origin, for the record: the supplement of paper PMC5998384
